# assayedTarget: Ba/F3 stable cells (Homo sapiens, UniProt P00533, DUP771-773, cells depend on it)
# Construct: EC50 Ba/F3-EGFR H773-V774insNPH; other: Ba/F3-EGFR H773-V774insNPH cells, 72 h, CCK-8
# Sequence (P00533 with tags, fused parts or gaps DUP771-773): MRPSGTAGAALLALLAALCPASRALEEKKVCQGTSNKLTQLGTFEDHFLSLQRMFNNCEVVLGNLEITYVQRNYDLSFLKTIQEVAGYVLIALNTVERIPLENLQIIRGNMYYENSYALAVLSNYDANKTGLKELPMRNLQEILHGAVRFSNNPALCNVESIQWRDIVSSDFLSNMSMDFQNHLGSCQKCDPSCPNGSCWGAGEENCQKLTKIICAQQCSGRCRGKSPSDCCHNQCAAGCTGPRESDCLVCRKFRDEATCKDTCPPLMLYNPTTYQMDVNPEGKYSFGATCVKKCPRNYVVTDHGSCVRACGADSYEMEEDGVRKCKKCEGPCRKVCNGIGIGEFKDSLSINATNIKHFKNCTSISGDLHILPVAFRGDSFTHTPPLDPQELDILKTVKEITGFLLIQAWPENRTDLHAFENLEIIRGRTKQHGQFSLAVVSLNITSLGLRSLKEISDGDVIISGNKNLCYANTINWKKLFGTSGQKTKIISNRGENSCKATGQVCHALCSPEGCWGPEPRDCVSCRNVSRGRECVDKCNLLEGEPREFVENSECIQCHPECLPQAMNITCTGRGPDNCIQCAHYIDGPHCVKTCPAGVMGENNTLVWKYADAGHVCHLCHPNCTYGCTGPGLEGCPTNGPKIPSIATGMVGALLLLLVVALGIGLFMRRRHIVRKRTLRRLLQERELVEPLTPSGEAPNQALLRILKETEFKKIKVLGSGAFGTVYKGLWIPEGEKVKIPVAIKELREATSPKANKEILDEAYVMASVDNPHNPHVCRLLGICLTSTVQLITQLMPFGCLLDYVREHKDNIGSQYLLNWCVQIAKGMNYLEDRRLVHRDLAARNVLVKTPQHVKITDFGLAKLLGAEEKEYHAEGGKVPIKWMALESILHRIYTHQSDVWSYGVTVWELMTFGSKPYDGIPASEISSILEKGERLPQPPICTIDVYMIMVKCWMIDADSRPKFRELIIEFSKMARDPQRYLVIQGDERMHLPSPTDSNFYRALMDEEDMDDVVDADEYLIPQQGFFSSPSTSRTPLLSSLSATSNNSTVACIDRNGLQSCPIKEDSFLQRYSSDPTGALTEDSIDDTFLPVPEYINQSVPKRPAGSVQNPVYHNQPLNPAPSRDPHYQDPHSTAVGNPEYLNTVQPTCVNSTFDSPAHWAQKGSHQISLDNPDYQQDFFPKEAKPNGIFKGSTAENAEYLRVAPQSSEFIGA
# assayDetails: EC50 assay: Ba/F3 stable cell proliferation (CCK-8, 72 h)
# conditionParameters: Ba/F3-EGFR H773-V774insNPH cells
pEC50: −log10 of the molar value. Where a name gives a salt, the structure may show the parent alone.
Hi there, I'd appreciate the recorded pEC50 for every entry that follows.

Data request, read-out pEC50, for `C=CC(=O)N1CC(c2cc3c(Nc4ccc(Cl)c(Cl)c4F)ncnc3cc2O[C@@H]2CCOC2)C1`
≥ 6.70

Data request, read-out pEC50, for `C=CC(=O)N[C@H]1C[C@H](Oc2cc3c(Nc4ccc(Cl)c(Cl)c4F)ncnc3cc2OC)C1`
6.00 to 6.70

Data request, read-out pEC50, for `C#CC(=O)N[C@H]1C[C@@H](Oc2cc3c(Nc4cccc5c4CCC5)ncnc3cc2OC)C1`
< 6.00

Data request, read-out pEC50, for COc1cc2ncnc(Nc3ccc(Cl)c(Cl)c3F)c2c([N+](=O)[O-])c1OC1CCNCC1 [Compound 207, hydrochloride]
6.00 to 6.70

Data request, read-out pEC50, for `C=CC(=O)N1CC(c2cc3c(Nc4ccc(F)c5ccccc45)ncnc3cc2OC)C1`
≥ 6.70

Data request, read-out pEC50, for `C=CC(=O)N1CCC(Oc2c(OC)cc3ncnc(Nc4ccc(Cl)c(Cl)c4F)c3c2[N+](=O)[O-])CC1`
< 6.00

Data request, read-out pEC50, for `C=CC(=O)N1CCC(Oc2cc3c(Nc4cccc5c4CCC5)ncnc3cc2OC)CC1`
≥ 6.70

Data request, read-out pEC50, for `C=CC(=O)N1CCC(Oc2cc3c(Nc4ccc(C)c5ccccc45)ncnc3cc2OC)CC1`
6.00 to 6.70
